Attribution: patent US20130274178A1

# tgt: T1, HIV-1YU2 gp120 (HIV-1 strain YU-2, UniProt P35961 32-498, limits assumed)
# T1 construct: domain: gp120
# assayInfo: SPR competition; gp120 binding to mAb 17b
pIC50: −log10 of the molar value. Where no end group is shown, it is not given here. [ ]: non-standard residue; d: D form.
Each record here notes measured pIC50.
measurementLabel: pIC50

> print(dat)
                                     binder  reportedvalue
1  ENNI[Azp‑triazole‑ferrocene]WS-NH2 (Rink amide resin; also called ENNIPWS) [UM23]           6.78
2  RNNI[Azp‑triazole‑ferrocene]WS (also called RNNIPWS) [UM22]           6.74
3  RINNI[Azp‑triazole‑ferrocene]W (also called RINNIPW) [UM12]           6.66
